Reported Kd values for the following binders.
target: T1, GST (Schistosoma japonicum (assumed, …, UniProt P08515 = GST)); assay: SPR; Biacore 8K; antigen immobilised on CM5 chip by amine coupling at 1 ug/ml (tdTomato) or 5 ug/ml (GST, IgGs) in 10 mM sodium acetate pH 5.5; nanobody injected in single-cycle kinetics at 0.1-10 nM; 20 mM Na-Hepes pH 7.4, 150 mM NaCl, 0.05% Tween 20; Langmuir 1:1 model, RIgG-1 and GIgG-4 fit to a two-step binding model; details: both partners purified
T1 construct: GST (glutathione S-transferase), the expression fusion protein tag; the methods describe only the production of GST-TEV protease; the 'GST' immobilised for SPR may be that fusion
T1 sequence (P08515 whole entry, looked up, the tested form may be a part): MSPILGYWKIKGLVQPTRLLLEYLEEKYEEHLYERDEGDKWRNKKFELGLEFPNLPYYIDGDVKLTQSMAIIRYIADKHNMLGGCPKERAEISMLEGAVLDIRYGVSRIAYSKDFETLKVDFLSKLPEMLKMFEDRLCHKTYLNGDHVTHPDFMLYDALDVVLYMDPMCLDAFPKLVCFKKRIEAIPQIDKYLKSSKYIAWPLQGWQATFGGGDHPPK
Give a bare numeral; the unit pM is implied.

Please review the entries below; each comes with its answer.
INSERT INTO assay_data (binder, numeric_readout) VALUES
  ('GST-5 (VHH, anti-GST nanobody; source: ArcticExpress (DE3) cells, purified from periplasm) VHH: QVQLVESGGGLVQAGGSLRLSCVVTGRAFGAYAMGWFRQSPGKEREFVAAITWNGGTTNYADSVKGRFAISRDNPPNTVYLQMNSLKPEDTAVYYCAKYPNNFWHNEAPDSWGRGTQVTVS', 130),
  ('GST-7 (VHH, anti-GST nanobody; source: ArcticExpress (DE3) cells, purified from periplasm) VHH: QVTLVESGGGLVQAGGSLGLSCTASGHTFNPYAMAWFRQAPGKEREFVAAIGWRVGTTYYTDSVKGRFTISADNAKNTAYLQMNSLKPEDTAVYYCAAGFGRSPSNYDYWGQGTQVTVS', 170),
  ('GST-2 (VHH, anti-GST nanobody; source: ArcticExpress (DE3) cells, purified from periplasm) VHH: QVQLVESGGGLVQAGGSLRLSCVVVGRAFGAYAMGWFRQSPGKEREFVAAITWNGGSITYADSVKGRFAISRDNPPNTVYLEMNSLKPEDTAVYYCAKYTNNYYNEAPKSWGQGTQVTVS', 64),
  ('GST-3 (VHH, anti-GST nanobody; source: ArcticExpress (DE3) cells, purified from periplasm) VHH: QVQLVESGGGLVQPGGSLRLSCADSGRIFSDYTMAWFRQPPGKEREFVASINRSGLGTYYADSVKGRFTVTRDNAKNMVYLQMNSLTVEDTAVYYCGARWGGSYIDPREGMYDFRGQGTQVTVS', 350),
  ('GST-6 (VHH, anti-GST nanobody; source: ArcticExpress (DE3) cells, purified from periplasm) VHH: QVQLVESGGGLVQPGESLRLSCAASGFTFSSHRMNWLRQAPGKGLEWVSTTSTGGGSAATYYVNSVKGRFTVSRDDAKNMLYLQMNSLKPEDTARYYCAIPESPGRPFGSTWSEYRYWGQGTQVTVS', 150),
  ('GST-8 (VHH, anti-GST nanobody; source: ArcticExpress (DE3) cells, purified from periplasm) VHH: QVQLVESGGDLVQAGGSLRLSCAASGSISAAYDMGWFRQVPGKQRELVASLGSGGFSAYADSVKGRFTVSRDNAKNTVYLQMNSLKPEDTGVYYCAARTPFDIWTTGRWGEYDYWGQGTQVTVS', 130);

Return reported Kd. Input binder: GST-4 (VHH, anti-GST nanobody; source: ArcticExpress (DE3) cells, purified from periplasm) VHH: QVQLVESGGGLVQAGGSLRLSCVCVGRAFGVYAMGWFRQSPGKEREFVAAITWNGGSIDYADSVKGRFAISRDNPPNTVYLQMNSLKPEDTAVYYCAKYRNNYYNEAPNSWGQGTQVTVS
260

Return reported Kd. Input binder: GST-1 (VHH, anti-GST nanobody; source: ArcticExpress (DE3) cells, purified from periplasm) VHH: QVQLVESGGGLVQAGGSLRLSCVCVGRAFGVYAMGWFRQSPGKEREFVAAITWNGGSIDYADSVKGRFAISRDNPPNTVYLQMNSLKPEDTAVYYCAKYRNNYYNEAPNSWGQGTQVTVS
85
